Catalogue of compounds with associated Selectivity Index
MEASUREMENT TARGET: Nociceptin receptor (Homo sapiens, UniProt P41146)
Sequence (P41146 whole entry): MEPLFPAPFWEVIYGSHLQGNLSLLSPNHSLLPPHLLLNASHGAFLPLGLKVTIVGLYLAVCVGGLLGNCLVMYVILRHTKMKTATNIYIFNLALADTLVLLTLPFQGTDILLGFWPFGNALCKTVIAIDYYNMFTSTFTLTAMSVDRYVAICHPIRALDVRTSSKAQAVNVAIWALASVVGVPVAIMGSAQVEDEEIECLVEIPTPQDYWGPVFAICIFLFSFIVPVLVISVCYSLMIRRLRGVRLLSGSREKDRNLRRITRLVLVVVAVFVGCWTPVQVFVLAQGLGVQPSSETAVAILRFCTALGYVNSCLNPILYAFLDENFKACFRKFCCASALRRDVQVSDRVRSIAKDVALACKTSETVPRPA
ASSAY DETAILS: Bias factor, selectivity for agonist activity at NOP (unknown origin) expressed in HEK293 cell membranes co-expressing beta-arrestin2-RGFP protein assessed as induction of beta-arrestin2 activation to agonist activity at NOP (unknown origin) expressed in HEK293 cell membranes co-expressing Gbeta1-RGFP protein assessed as induction of G protein activation
Type: cell-based
Non-standard residues stand in square brackets, D forms with d. Residues, ends and D or L forms follow the SMILES beside them. *: point of attachment. X1 = CCCCCCCCCCCCCCCC(=O)NCCCN1C(=O)CC(*)C1=O; Ac5c = NC1(C(=O)O)CCCC1; Ac3c = NC1(C(=O)O)CC1; Aib = CC(C)(N)C(=O)O
PARAMETER MEASURED: Selectivity Index

- COMPOUND: "C[C@H](NC(=O)CNC(=O)[C@@H](NC(=O)[C@H](Cc1ccccc1)NC(=O)CNC(=O)CNC(=O)[C@@H](N)Cc1ccccc1)[C@@H](C)O)C(=O)N[C@@H](CCCNC(=N)N)C(=O)N[C@@H](CCCCN)C(=O)N[C@@H](CO)C(=O)N[C@@H](C)C(=O)N[C@@H](CCCNC(=N)N)C(=O)N[C@@H](CCCCN)C(=O)N[C@@H](CSC1CC(=O)N(CCCC(=O)N[C@@H](CCCCN)C(=O)N[C@@H](CCCCN)C(=O)N[C@@H](CCCCN)C(=O)N[C@@H](CCCCN)C(=O)N[C@@H](CCCCN)C(=O)N[C@@H](CCCCN)C(N)=O)C1=O)C(N)=O (stereo partly drawn)"
  MEASUREMENT TARGET: "Nociceptin receptor (Homo sapiens, UniProt P41146)"
  PARAMETER MEASURED: "Selectivity Index"
  VALUE MEASURED: 0.83
- COMPOUND: "CCCCCCCCCCCCCCCC(=O)NCCCN1C(=O)CC(SC[C@H](NC(=O)[C@H](CCCCN)NC(=O)[C@H](CCCNC(=N)N)NC(=O)[C@H](C)NC(=O)CNC(=O)[C@@H](NC(=O)[C@H](Cc2ccccc2)NC(=O)CNC(=O)CNC(=O)[C@@H](N)Cc2ccccc2)[C@@H](C)O)C(=O)N[C@@H](C)C(=O)N[C@@H](CCCNC(=N)N)C(=O)N[C@@H](CCCCN)C(N)=O)C1=O (stereo partly drawn) (H-FGGFTGARKC(X1)ARK-NH2)"
  MEASUREMENT TARGET: "Nociceptin receptor (Homo sapiens, UniProt P41146)"
  PARAMETER MEASURED: "Selectivity Index"
  VALUE MEASURED: 0.91
- COMPOUND: "CCCCCCCCCCCCCCCC(=O)NCCCN1C(=O)CC(SC[C@H](NC(=O)[C@H](CCCNC(=N)N)NC(=O)[C@H](C)NC(=O)[C@H](CO)NC(=O)[C@H](CCCCN)NC(=O)[C@H](CCCNC(=N)N)NC(=O)[C@H](C)NC(=O)CNC(=O)[C@@H](NC(=O)[C@H](Cc2ccccc2)NC(=O)CNC(=O)CNC(=O)[C@@H](N)Cc2ccccc2)[C@@H](C)O)C(N)=O)C1=O (stereo partly drawn) (H-FGGFTGARKSARC(X1)-NH2)"
  MEASUREMENT TARGET: "Nociceptin receptor (Homo sapiens, UniProt P41146)"
  PARAMETER MEASURED: "Selectivity Index"
  VALUE MEASURED: 0.7
- COMPOUND: "C[C@H](NC(=O)CNC(=O)[C@@H](NC(=O)[C@H](Cc1ccccc1)NC(=O)CNC(=O)CNC(=O)[C@@H](N)Cc1ccccc1)[C@@H](C)O)C(=O)N[C@@H](CCCNC(=N)N)C(=O)N[C@@H](CCCCN)C(=O)N[C@@H](CO)C(=O)NC1(C(=O)N[C@@H](CCCNC(=N)N)C(=O)N[C@@H](CCCCN)C(N)=O)CCCC1 (H-FGGFTGARKS[Ac5c]RK-NH2)"
  MEASUREMENT TARGET: "Nociceptin receptor (Homo sapiens, UniProt P41146)"
  PARAMETER MEASURED: "Selectivity Index"
  VALUE MEASURED: 0.31
- COMPOUND: "CCCCCCCCCCCCCCCC(=O)NCCCN1C(=O)CC(SC[C@H](NC(=O)[C@H](CO)NC(=O)[C@H](CCCCN)NC(=O)[C@H](CCCNC(=N)N)NC(=O)[C@H](C)NC(=O)CNC(=O)[C@@H](NC(=O)[C@H](Cc2ccccc2)NC(=O)CNC(=O)CNC(=O)[C@@H](N)Cc2ccccc2)[C@@H](C)O)C(=O)N[C@@H](CCCNC(=N)N)C(=O)N[C@@H](CCCCN)C(N)=O)C1=O (stereo partly drawn) (H-FGGFTGARKSC(X1)RK-NH2)"
  MEASUREMENT TARGET: "Nociceptin receptor (Homo sapiens, UniProt P41146)"
  PARAMETER MEASURED: "Selectivity Index"
  VALUE MEASURED: 1.11
- COMPOUND: "C[C@H](NC(=O)[C@H](CO)NC(=O)[C@H](CCCCN)NC(=O)[C@H](CCCNC(=N)N)NC(=O)C1(NC(=O)CNC(=O)[C@@H](NC(=O)[C@H](Cc2ccccc2)NC(=O)CNC(=O)CNC(=O)[C@@H](N)Cc2ccccc2)[C@@H](C)O)CCCC1)C(=O)N[C@@H](CCCNC(=N)N)C(=O)N[C@@H](CCCCN)C(N)=O (H-FGGFTG[Ac5c]RKSARK-NH2)"
  MEASUREMENT TARGET: "Nociceptin receptor (Homo sapiens, UniProt P41146)"
  PARAMETER MEASURED: "Selectivity Index"
  VALUE MEASURED: 0.08
- COMPOUND: "C[C@H](NC(=O)[C@H](CO)NC(=O)[C@H](CCCCN)NC(=O)[C@H](CCCNC(=N)N)NC(=O)C1(NC(=O)CNC(=O)[C@@H](NC(=O)[C@H](Cc2ccccc2)NC(=O)CNC(=O)CNC(=O)[C@@H](N)Cc2ccccc2)[C@@H](C)O)CC1)C(=O)N[C@@H](CCCNC(=N)N)C(=O)N[C@@H](CCCCN)C(N)=O (H-FGGFTG[Ac3c]RKSARK-NH2)"
  MEASUREMENT TARGET: "Nociceptin receptor (Homo sapiens, UniProt P41146)"
  PARAMETER MEASURED: "Selectivity Index"
  VALUE MEASURED: 0.4
- COMPOUND: "C[C@H](NC(=O)CNC(=O)[C@@H](NC(=O)[C@H](Cc1ccccc1)NC(=O)CNC(=O)CNC(=O)[C@@H](N)Cc1ccccc1)[C@@H](C)O)C(=O)N[C@@H](CCCNC(=N)N)C(=O)N[C@@H](CCCCN)C(=O)N[C@@H](CO)C(=O)NC(C)(C)C(=O)N[C@@H](CCCNC(=N)N)C(=O)N[C@@H](CCCCN)C(N)=O (H-FGGFTGARKS[Aib]RK-NH2)"
  MEASUREMENT TARGET: "Nociceptin receptor (Homo sapiens, UniProt P41146)"
  PARAMETER MEASURED: "Selectivity Index"
  VALUE MEASURED: 0.29
